Where do the numbers come from? From patent US8129371B2.

- target: Human mTOR (FLAG-TOR) (Homo sapiens, UniProt P42345)
- Construct: FLAG
- assayProcedure: Human mTOR kinase assay with purified enzyme, DELFIA format
- Type: biochemical
Entries annotated with measured IC50
Write the value in nM as a bare number.

>  <sampleSmiles>
CN1CCN(c2ccc(NC(=O)Nc3ccc(-c4nc(N5CC6CCC(C5)O6)c5cnn(CC(F)(F)F)c5n4)cc3)cc2)CC1

>  <target>
Human mTOR (FLAG-TOR) (Homo sapiens, UniProt P42345)

>  <measuredMetric>
IC50

>  <unitDescriptor>
nM

>  <measuredResult>
0.776

$$$$

Quick one: IC50 for Nc1cccc(COC(=O)Nc2ccc(-c3nc(N4CC5CCC(C4)O5)c4cnn(CC(F)(F)F)c4n3)cc2)c1 ?
1620

Quick one: IC50 for CC(C)n1ncc2c(N3CC4CCC(C3)O4)nc(-c3ccc(NC(=O)NCCF)cc3)nc21 ?
0.155
